Values compiled from patent US20250388544A1.

- measurement.target: hMeprin β (Homo sapiens, UniProt Q16820)
- Sequence (Q16820 62-701): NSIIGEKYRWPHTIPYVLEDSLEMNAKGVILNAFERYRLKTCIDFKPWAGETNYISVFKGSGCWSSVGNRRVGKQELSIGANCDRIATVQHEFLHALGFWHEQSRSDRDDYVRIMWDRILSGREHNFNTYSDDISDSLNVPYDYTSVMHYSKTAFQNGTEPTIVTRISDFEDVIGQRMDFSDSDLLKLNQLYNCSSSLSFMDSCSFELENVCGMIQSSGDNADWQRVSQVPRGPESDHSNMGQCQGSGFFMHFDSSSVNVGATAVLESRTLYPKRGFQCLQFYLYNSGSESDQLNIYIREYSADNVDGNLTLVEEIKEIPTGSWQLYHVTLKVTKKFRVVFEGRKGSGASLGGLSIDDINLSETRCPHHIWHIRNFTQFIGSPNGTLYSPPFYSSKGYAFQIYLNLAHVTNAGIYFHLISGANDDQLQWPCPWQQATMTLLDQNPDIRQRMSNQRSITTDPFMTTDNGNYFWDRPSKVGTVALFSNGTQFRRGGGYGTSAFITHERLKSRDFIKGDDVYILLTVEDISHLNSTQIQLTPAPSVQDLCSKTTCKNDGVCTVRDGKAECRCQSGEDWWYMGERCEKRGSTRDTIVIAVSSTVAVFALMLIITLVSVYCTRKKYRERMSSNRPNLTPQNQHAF
- method.notes: Enzymatic assay, quenched peptide substrate cleavage, method A
- Assay type: biochemical
- experimental.conditions: geometric mean (geometric SD factor in parentheses), read-out: Meprin beta IC50
outcome.measure: IC50 (µM)

{"smiles.representation": "O=C(CCn1c(-c2ccccc2)nnc1-c1ccccc1)NO", "measurement.target": "hMeprin β (Homo sapiens, UniProt Q16820)", "result.number": 42.3}
{"smiles.representation": "Cn1nc(-c2ccccc2)c(CC(=O)NO)c1-c1ccccc1", "measurement.target": "hMeprin β (Homo sapiens, UniProt Q16820)", "result.number": 1.22}
{"smiles.representation": "O=C(Cc1c(-c2ccccc2)n[nH]c1-c1ccccc1)NO", "measurement.target": "hMeprin β (Homo sapiens, UniProt Q16820)", "result.number": 0.204}
{"smiles.representation": "O=C(Cn1c(-c2ccccc2)nnc1-c1ccccc1)NO", "measurement.target": "hMeprin β (Homo sapiens, UniProt Q16820)", "result.number": 8.71}
{"smiles.representation": "O=C(Cc1c(-c2ccccc2)nnn1-c1ccccc1)NO", "measurement.target": "hMeprin β (Homo sapiens, UniProt Q16820)", "result.number": 1.45}
